# MEASUREMENT_TARGET: T1, monomeric recombinant human Notch3 extracellular domain (containing EGF like domains 1-11) fusion protein (human, UniProt Q9UM47 40-467)
# T1 construct: domain: EGF like domains 1-11; also called monomeric rhNotch3
# T1 sequence (looked up): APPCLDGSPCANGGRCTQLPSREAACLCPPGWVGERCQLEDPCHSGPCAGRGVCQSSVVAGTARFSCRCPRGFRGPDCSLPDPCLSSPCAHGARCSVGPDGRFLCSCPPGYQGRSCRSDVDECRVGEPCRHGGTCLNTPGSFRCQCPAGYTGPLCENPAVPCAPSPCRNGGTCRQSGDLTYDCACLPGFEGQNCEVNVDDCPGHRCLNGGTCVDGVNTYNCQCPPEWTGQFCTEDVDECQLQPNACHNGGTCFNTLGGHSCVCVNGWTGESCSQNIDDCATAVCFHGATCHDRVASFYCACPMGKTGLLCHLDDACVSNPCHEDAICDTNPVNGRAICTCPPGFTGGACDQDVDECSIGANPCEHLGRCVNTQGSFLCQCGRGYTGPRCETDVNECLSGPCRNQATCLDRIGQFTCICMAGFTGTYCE
# EXPERIMENT: SPR BIAcore T100, antibody captured by anti-human IgG Fc, monomeric rhNotch3 analyte, 37 C
ENDPOINT_LABEL: kon (M⁻¹ s⁻¹)
One number for each entry, in M⁻¹ s⁻¹.

1. Hu4F11-75 (antibody, human IgG1, kappa, V domains shown, Humanized, human IgG1 kappa; Hv3-23 A28T T62S heavy + Kv2D-29 N28Y kappa) VH: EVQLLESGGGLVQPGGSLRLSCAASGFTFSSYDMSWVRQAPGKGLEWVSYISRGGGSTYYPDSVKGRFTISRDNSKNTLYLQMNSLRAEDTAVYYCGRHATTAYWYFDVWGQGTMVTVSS VL: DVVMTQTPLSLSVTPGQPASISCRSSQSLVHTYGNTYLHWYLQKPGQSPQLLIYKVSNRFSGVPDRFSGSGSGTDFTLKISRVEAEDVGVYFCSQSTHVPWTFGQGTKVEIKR : 2.7e+06

// next entry
Given the binder Hu4F11-70 (antibody, human IgG1, kappa, V domains shown, Humanized, human IgG1 kappa; Hv3-23 A28T S31H T62S heavy + Kv2D-29 N28H kappa) VH: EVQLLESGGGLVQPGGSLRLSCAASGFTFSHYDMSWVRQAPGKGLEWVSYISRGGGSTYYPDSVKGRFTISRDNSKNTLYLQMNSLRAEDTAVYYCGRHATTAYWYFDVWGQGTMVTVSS VL: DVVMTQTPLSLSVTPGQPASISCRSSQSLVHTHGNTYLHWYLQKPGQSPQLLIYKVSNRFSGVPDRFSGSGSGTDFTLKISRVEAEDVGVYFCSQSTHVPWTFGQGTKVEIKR , what is its reported kon?
940000
